# targetUnderTest: X2IRBP (second module of Xenopus IRBP), wild-type sequence
# methodDescription: Titration monitoring quenching of tryptophan
# Assay type: binding
# assayConditions: read-out: Kd, Quenching; all-trans retinol; excitation 280 nm, emission 340 nm; Figure 4
reportedEndpoint: Kd (nM)
Numbers only, in nM.

Prompt line: // query Kd value for entry CC1=C(/C=C/C(C)=C/C=C/C(C)=C/CO)C(C)(C)CCC1 [all-trans retinol]
Response line: 8

---

# targetUnderTest: X2IRBP (second module of Xenopus IRBP), wild-type sequence
# methodDescription: Titration monitoring quenching of tryptophan
# Format: binding
# assayConditions: read-out: Kd, Quenching; 11-cis retinol; X2IRBP of wild-type sequence; excitation 280 nm, emission 340 nm; Figure 6
reportedEndpoint: Kd
Dear colleague, please send the value followed by its unit.

Prompt line: // query Kd value for entry CC1=C(/C=C/C(C)=C/C=C\C(C)=C\CO)C(C)(C)CCC1 [11-cis retinol]
Response line: 42 nM
